# experimental system: T. aquaticus aminopeptidase T (Thermus aquaticus, UniProt P23341)
# Construct: 6xHis (C); made in house; host or cells: E. coli BL21(DE3), pET24b(+)
# test summary: Aminopeptidase assay with different amino acid p-nitroanilide substrates at 40° C. and 80° C.
# Assay type: biochemical
# run conditions: 40° C., 2 h, PBS, substrate 1.5 mM
reported property: cleavage speed category of substrate

Answered examples (6):
compound: NC(N)=NCCC[C@H](N)C(=O)Nc1ccc([N+](=O)[O-])cc1
cleavage speed category of substrate: fast-cleaved
//
compound: N[C@@H](Cc1ccc(O)cc1)C(=O)Nc1ccc([N+](=O)[O-])cc1
cleavage speed category of substrate: fast-cleaved
//
compound: O=C(Nc1ccc([N+](=O)[O-])cc1)[C@@H]1CCCN1
cleavage speed category of substrate: slow-cleaved
//
compound: N[C@@H](Cc1ccccc1)C(=O)Nc1ccc([N+](=O)[O-])cc1
cleavage speed category of substrate: in between
//
compound: CC(C)C[C@H](N)C(=O)Nc1ccc([N+](=O)[O-])cc1 [Leu, L-leucine-p-nitroanilide]
cleavage speed category of substrate: in between
//
compound: CSCC[C@H](N)C(=O)Nc1ccc([N+](=O)[O-])cc1
cleavage speed category of substrate: in between

# next compound below
## Task Given the compound `N[C@@H](CC(=O)O)C(=O)Nc1ccc([N+](=O)[O-])cc1` , what is its reported cleavage speed category of substrate?
## Result slow-cleaved

====

I'd appreciate it if you could supply Km values for the items below.
# experimental system: T. aquaticus aminopeptidase T (Thermus aquaticus)
# Construct: 6xHis (C); made in house; host or cells: E. coli BL21(DE3), pET24b(+)
# Format: biochemical
# run conditions: 40° C., PBS, enzyme 2.0625 μM, substrate 0.0625-2 mM, Lineweaver-Burke plot
Give bare numbers, in µM.

smiles input: O=C(Nc1ccc([N+](=O)[O-])cc1)[C@@H]1CCCN1
recorded value: 546
--
smiles input: CC(C)[C@H](N)C(=O)Nc1ccc([N+](=O)[O-])cc1
recorded value: 192
--
smiles input: NCC(=O)Nc1ccc([N+](=O)[O-])cc1
recorded value: 765

Parameters: items (list). Returns: Km for each item.
1. N[C@@H](Cc1ccc(O)cc1)C(=O)Nc1ccc([N+](=O)[O-])cc1
2. CSCC[C@H](N)C(=O)Nc1ccc([N+](=O)[O-])cc1
3. C[C@H](N)C(=O)Nc1ccc([N+](=O)[O-])cc1
4. NC(N)=NCCC[C@H](N)C(=O)Nc1ccc([N+](=O)[O-])cc1
5. NCCCC[C@H](N)C(=O)Nc1ccc([N+](=O)[O-])cc1

## Result
[211, 99, 736, 415, 193]

====

# experimental system: T. aquaticus aminopeptidase T (Thermus aquaticus)
# Construct: 6xHis (C); made in house; host or cells: E. coli BL21(DE3), pET24b(+)
# Sequence (P23341 with tags, fused parts or gaps): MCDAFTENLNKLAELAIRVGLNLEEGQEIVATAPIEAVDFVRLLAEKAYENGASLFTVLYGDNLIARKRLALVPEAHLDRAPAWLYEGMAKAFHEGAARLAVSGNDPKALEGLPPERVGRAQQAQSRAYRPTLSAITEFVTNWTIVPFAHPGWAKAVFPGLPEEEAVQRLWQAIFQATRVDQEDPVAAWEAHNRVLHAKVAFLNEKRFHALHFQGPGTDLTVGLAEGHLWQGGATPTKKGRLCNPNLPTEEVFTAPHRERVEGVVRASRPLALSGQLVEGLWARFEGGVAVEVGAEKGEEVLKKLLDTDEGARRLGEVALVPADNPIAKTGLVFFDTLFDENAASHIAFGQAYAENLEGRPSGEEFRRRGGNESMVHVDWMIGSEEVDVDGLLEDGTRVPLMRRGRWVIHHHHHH
# test summary: Aminopeptidase assay with different amino acid p-nitroanilide substrates at 40° C. and 80° C.
# Assay type: biochemical
# run conditions: 80° C., 2 h, PBS, substrate 1.5 mM
reported property: cleavage speed category of substrate

Reference set (6 entries):
compound: N[C@@H](Cc1ccc(O)cc1)C(=O)Nc1ccc([N+](=O)[O-])cc1
experimental system: T. aquaticus aminopeptidase T (Thermus aquaticus)
cleavage speed category of substrate: fast-cleaved
--
compound: CSCC[C@H](N)C(=O)Nc1ccc([N+](=O)[O-])cc1
experimental system: T. aquaticus aminopeptidase T (Thermus aquaticus)
cleavage speed category of substrate: fast-cleaved
--
compound: CC(C)C[C@H](N)C(=O)Nc1ccc([N+](=O)[O-])cc1 [Leu, L-leucine-p-nitroanilide]
experimental system: T. aquaticus aminopeptidase T (Thermus aquaticus)
cleavage speed category of substrate: fast-cleaved
--
compound: NC(N)=NCCC[C@H](N)C(=O)Nc1ccc([N+](=O)[O-])cc1
experimental system: T. aquaticus aminopeptidase T (Thermus aquaticus)
cleavage speed category of substrate: fast-cleaved
--
compound: O=C(Nc1ccc([N+](=O)[O-])cc1)[C@@H]1CCCN1
experimental system: T. aquaticus aminopeptidase T (Thermus aquaticus)
cleavage speed category of substrate: slow-cleaved
--
compound: N[C@@H](Cc1ccccc1)C(=O)Nc1ccc([N+](=O)[O-])cc1
experimental system: T. aquaticus aminopeptidase T (Thermus aquaticus)
cleavage speed category of substrate: fast-cleaved

Turning now to a further record.
## Task Any idea what cleavage speed category of substrate was measured for `N[C@@H](CC(=O)O)C(=O)Nc1ccc([N+](=O)[O-])cc1` ?
## Result slow-cleaved

====

# experimental system: T. aquaticus aminopeptidase T (Thermus aquaticus, UniProt P23341)
# Construct: 6xHis (C); made in house; host or cells: E. coli BL21(DE3), pET24b(+)
# Format: biochemical
# run conditions: 40° C.; calculated as 1/kcat
# Protocol: The kinetic parameters from T. aquaticus aminopeptidase T for cleaving different amino acid substrates was determined with a p-nitroanilide assay. Substrates consist of an N-terminal amino acid with a p-nitroanilide attached to its C-terminus. Upon amino acid cleavage, the free nitroanilide can be monitored by measuring the absorbance at 405 nm. […] Subsequently p-nitroanilide release was continuously measured at 40° C. with a FLUOstar Omega microplate reader (MBG LabTech). […]
Please go through the items and note down their on-time (s).
Give bare numbers, in s.

Look over these answered cases.
compound: NCCCC[C@H](N)C(=O)Nc1ccc([N+](=O)[O-])cc1
experimental system: T. aquaticus aminopeptidase T (Thermus aquaticus, UniProt P23341)
reported property: on-time (s)
readout units: s
recorded value: 677
--
compound: CC(C)[C@H](N)C(=O)Nc1ccc([N+](=O)[O-])cc1
experimental system: T. aquaticus aminopeptidase T (Thermus aquaticus, UniProt P23341)
reported property: on-time (s)
readout units: s
recorded value: 727

// batch mode: one on-time (s) value per listed entry
1. N[C@@H](Cc1ccc(O)cc1)C(=O)Nc1ccc([N+](=O)[O-])cc1
2. C[C@H](N)C(=O)Nc1ccc([N+](=O)[O-])cc1
3. CSCC[C@H](N)C(=O)Nc1ccc([N+](=O)[O-])cc1
4. NCC(=O)Nc1ccc([N+](=O)[O-])cc1
5. CC(C)C[C@H](N)C(=O)Nc1ccc([N+](=O)[O-])cc1 [Leu, L-leucine-p-nitroanilide]
6. O=C(Nc1ccc([N+](=O)[O-])cc1)[C@@H]1CCCN1
7. NC(N)=NCCC[C@H](N)C(=O)Nc1ccc([N+](=O)[O-])cc1

## Result
142
86
212
326
390
504
61

====

# experimental system: T. aquaticus aminopeptidase T (Thermus aquaticus)
# Construct: 6xHis (C); made in house; host or cells: E. coli BL21(DE3), pET24b(+)
# Assay type: biochemical
# run conditions: 40° C., PBS; kcat=Vmax/[E]
Labelling: kcat reported below 0.007 s⁻¹ becomes yes (1); at or above becomes no (0).

molecule: NC(N)=NCCC[C@H](N)C(=O)Nc1ccc([N+](=O)[O-])cc1 [Arg]
experimental system: T. aquaticus aminopeptidase T (Thermus aquaticus)
label class: no (0)
--
molecule: O=C(Nc1ccc([N+](=O)[O-])cc1)[C@@H]1CCCN1 [Pro]
experimental system: T. aquaticus aminopeptidase T (Thermus aquaticus)
label class: yes (1)
--
molecule: C[C@H](N)C(=O)Nc1ccc([N+](=O)[O-])cc1 [Ala]
experimental system: T. aquaticus aminopeptidase T (Thermus aquaticus)
label class: no (0)
--
molecule: CSCC[C@H](N)C(=O)Nc1ccc([N+](=O)[O-])cc1 [Met]
experimental system: T. aquaticus aminopeptidase T (Thermus aquaticus)
label class: yes (1)
--
molecule: NCC(=O)Nc1ccc([N+](=O)[O-])cc1 [Gly]
experimental system: T. aquaticus aminopeptidase T (Thermus aquaticus)
label class: yes (1)
--
molecule: NCCCC[C@H](N)C(=O)Nc1ccc([N+](=O)[O-])cc1 [Lys]
experimental system: T. aquaticus aminopeptidase T (Thermus aquaticus)
label class: yes (1)

## Task Does CC(C)[C@H](N)C(=O)Nc1ccc([N+](=O)[O-])cc1 [Val] have kcat strictly under 0.007 s⁻¹?
## Result yes (1)

Data credit: patent US12422438B2
